biological target: p110 δ (RAJI cells) (Homo sapiens (Human)); experiment: PI3K-δ selective cellular assay: phospho-AKT in anti-human IgM stimulated RAJI cells; conditions: serum-starved RAJI cells stimulated with anti-human IgM
Sequence (O00329 whole entry): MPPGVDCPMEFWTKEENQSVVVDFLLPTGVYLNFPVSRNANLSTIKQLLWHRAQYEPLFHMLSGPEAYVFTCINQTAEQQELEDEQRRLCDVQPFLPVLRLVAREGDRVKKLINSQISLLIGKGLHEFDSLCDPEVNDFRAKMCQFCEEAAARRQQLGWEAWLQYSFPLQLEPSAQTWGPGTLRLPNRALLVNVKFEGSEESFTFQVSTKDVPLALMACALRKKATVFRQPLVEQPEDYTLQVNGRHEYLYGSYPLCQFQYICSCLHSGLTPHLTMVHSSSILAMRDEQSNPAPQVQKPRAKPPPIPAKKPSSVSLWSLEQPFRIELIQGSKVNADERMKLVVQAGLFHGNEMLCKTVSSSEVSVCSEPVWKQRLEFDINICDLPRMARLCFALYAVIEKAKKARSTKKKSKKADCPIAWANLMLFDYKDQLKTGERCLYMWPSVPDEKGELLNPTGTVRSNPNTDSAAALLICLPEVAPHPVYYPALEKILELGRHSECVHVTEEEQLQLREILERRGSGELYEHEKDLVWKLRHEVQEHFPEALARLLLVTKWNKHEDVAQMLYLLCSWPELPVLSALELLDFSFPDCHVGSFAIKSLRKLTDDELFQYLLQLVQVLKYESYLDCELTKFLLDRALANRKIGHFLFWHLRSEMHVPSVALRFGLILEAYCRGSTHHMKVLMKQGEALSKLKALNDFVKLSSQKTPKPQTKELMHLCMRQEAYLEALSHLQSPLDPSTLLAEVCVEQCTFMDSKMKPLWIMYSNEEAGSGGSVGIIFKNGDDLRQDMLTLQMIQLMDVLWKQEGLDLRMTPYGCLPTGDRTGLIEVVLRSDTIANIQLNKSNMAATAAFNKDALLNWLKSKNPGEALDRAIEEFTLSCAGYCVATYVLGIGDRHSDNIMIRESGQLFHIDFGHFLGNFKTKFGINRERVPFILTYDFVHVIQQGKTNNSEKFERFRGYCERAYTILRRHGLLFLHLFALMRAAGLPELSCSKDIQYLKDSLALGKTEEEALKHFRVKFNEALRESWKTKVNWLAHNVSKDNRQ
Sequence (P27986 whole entry partner): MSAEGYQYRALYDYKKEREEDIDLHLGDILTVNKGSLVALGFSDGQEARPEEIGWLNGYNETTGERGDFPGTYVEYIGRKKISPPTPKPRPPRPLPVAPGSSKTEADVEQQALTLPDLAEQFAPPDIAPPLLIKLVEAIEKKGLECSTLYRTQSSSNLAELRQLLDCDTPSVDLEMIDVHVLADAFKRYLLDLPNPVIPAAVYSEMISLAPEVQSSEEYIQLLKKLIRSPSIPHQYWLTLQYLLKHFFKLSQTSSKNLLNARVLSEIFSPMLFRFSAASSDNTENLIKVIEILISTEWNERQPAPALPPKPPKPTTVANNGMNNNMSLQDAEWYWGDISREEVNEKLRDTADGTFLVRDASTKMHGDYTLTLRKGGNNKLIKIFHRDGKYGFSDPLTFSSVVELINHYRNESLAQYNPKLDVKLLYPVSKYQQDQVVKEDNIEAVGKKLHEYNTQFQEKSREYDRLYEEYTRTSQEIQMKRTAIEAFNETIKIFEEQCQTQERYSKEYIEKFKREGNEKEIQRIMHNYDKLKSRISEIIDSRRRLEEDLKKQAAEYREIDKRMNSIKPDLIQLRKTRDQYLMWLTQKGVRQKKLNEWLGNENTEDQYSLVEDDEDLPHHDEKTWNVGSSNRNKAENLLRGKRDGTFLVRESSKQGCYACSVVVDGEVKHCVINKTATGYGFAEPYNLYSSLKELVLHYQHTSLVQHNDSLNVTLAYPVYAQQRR
assay.readout: IC50

Solved cases (6 shown):
> print(dat)
                      smiles.representation       test.result
1  C[C@H](NC(=O)c1c(N)nn2cccnc12)c1cc2cccc(Cl)c2c(=O)n1C1CCC1      10 to 100 nM
2  C[C@H](NC(=O)c1c(N)nn2cccnc12)c1cc2cccc(Cl)c2c(=O)n1CCc1nnn[nH]1  1000 to 10000 nM
3  C[C@H](NC(=O)c1c(N)nn2cccnc12)c1cc2cccc(Cl)c2c(=O)n1-c1cccc(O)c1        1 to 10 nM
4  C[C@H](NC(=O)c1c(N)nn2cccnc12)c1cc2cccc(Cl)c2c(=O)n1CCS(N)(=O)=O      10 to 100 nM
5  C[C@H](NC(=O)c1c(N)nn2cccnc12)c1cc2cccc(Cl)c2c(=O)n1-c1cccc(S(C)(=O)=O)c1     100 to 500 nM
6  C[C@H](NC(=O)c1c(N)nn2cccnc12)c1cc2cccc(Cl)c2c(=O)n1-c1ccccc1F      10 to 100 nM

For this compound ( `C[C@H](NC(=O)c1c(N)nn2cccnc12)c1cc2cccc(Cl)c2c(=O)n1Cc1nnn[nH]1` ), measured IC50 is 1000 to 10000 nM

// `C[C@H](NC(=O)c1c(N)nn2cccnc12)c1cc2cccc(Cl)c2c(=O)n1-c1ccccc1NS(C)(=O)=O` : IC50 value = 100 to 500 nM

The compound `C[C@H](NC(=O)c1c(N)nn2cccnc12)c1cc2cccc(OCC(F)(F)F)c2c(=O)n1-c1ccccc1` showed IC50 equal to 1000 to 10000 nM

Per the record, `Cc1noc(CCn2c([C@H](C)NC(=O)c3c(N)nn4cccnc34)cc3cccc(Cl)c3c2=O)n1` has IC50 of 10 to 100 nM

Value of IC50 reported for the compound `C[C@H](NC(=O)c1c(N)nn2cccnc12)c1cc2cccc(Cl)c2c(=O)n1-c1ccccc1O` is 1 to 10 nM

Just for reference, patent US9751888B2 is where these values come from.
